experiment: bioavailability of dextromethorphan after nasal, oral and intravenous administration (plasma levels, spectrofluorophotometric); format: in vivo, female beagle dogs; details: dog, plasma, po, 15 mg, dog #2, 20 min, HBr salt 15 mg/dog

>  <MOLECULE>
COc1ccc2c(c1)[C@]13CCCC[C@@H]1[C@H](C2)N(C)CC3 [dextromethorphan, d-3-methoxy-N-methylmorphinan]

>  <UNIT_ABBREV>
ng/mL

>  <concentration at 20 min>
62.9

$$$$

* * *

assay: bioavailability of dextromethorphan after nasal, oral and intravenous administration (plasma levels, spectrofluorophotometric); format: in vivo, female beagle dogs; conditions: dog, plasma, iv, 15 mg, dog #3, 120 min, HBr salt 15 mg/dog

>  <MOLECULE>
COc1ccc2c(c1)[C@]13CCCC[C@@H]1[C@H](C2)N(C)CC3

>  <UNIT_ABBREV>
ng/mL

>  <concentration at 2 h>
37.3

$$$$

Origin of measurements: patent US4454140A
